The reported measurements were obtained from patent US9957271B2.

Target: SIRT1 (Homo sapiens, UniProt Q96EB6)
Sequence (Q96EB6 whole entry): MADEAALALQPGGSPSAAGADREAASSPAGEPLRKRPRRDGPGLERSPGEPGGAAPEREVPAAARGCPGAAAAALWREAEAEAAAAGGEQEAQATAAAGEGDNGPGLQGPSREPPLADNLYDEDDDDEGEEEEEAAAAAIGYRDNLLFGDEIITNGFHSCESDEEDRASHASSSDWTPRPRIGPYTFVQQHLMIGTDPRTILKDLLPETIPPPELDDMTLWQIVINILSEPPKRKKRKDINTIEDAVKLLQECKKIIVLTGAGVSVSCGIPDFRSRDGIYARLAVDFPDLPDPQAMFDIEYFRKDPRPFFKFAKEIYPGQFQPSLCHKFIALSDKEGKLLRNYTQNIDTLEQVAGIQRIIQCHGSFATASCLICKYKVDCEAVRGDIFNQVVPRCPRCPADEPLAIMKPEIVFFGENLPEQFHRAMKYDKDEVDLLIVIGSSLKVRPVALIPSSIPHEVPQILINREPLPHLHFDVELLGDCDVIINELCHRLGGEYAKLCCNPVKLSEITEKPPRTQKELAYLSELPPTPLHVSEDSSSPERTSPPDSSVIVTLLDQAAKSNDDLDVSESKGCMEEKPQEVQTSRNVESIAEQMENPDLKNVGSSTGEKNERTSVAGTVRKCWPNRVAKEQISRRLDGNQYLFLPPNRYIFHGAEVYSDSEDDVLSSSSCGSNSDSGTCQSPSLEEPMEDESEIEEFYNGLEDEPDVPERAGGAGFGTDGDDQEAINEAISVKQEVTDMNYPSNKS
Assay: TAMRA based mass spectrometry assay of SIRT1 activity
Assay type: biochemical
Conditions: TAMRA peptide substrate; concentration giving 150% activation of SIRT1
assay.metric: TAMRA EC1.5

Guide cases for TAMRA EC1.5, answers given:
INSERT INTO results (molecule, assay_result) VALUES
  ('Cc1nc(NC(=O)c2cnn3ccc(-c4ccccc4C(F)(F)F)nc23)sc1C [Compound 509]', 'A (EC1.5<1 μM)'),
  ('Cc1nc2ccc(-c3ccccc3OC(F)(F)F)nn2c1C(=O)Nc1ccccn1 [Compound 496]', 'A (EC1.5<1 μM)'),
  ('O=C(Nc1ncn2ccc(-c3ccccc3C(F)(F)F)nc12)c1cccc(N2CCOCC2)n1 [Compound 456]', 'A (EC1.5<1 μM)'),
  ('Cc1cc(-c2ccccc2C(F)(F)F)nn2c(NC(=O)c3cnccn3)cnc12 [Compound 408]', 'A (EC1.5<1 μM)'),
  ('Cc1nc2c(C)cc(-c3ccccc3C(F)(F)F)nn2c1C(=O)Nc1cccnn1 [Compound 428]', 'A (EC1.5<1 μM)');

[Q] Find the recorded TAMRA EC1.5 belonging to O=C(Nc1cccc(O)n1)c1cnn2ccc(-c3ccccc3OC(F)(F)F)nc12 [Compound 580] and report it.
[A] B (EC1.5 1-25 μM)

[Q] Can you handle Cc1nn2ccc(-c3ccccc3C(F)(F)F)nc2c1NC(=O)c1cnccn1 [Compound 571] next?
[A] C (EC1.5>25 μM)

[Q] Can you handle Cc1nc2c(C)cc(-c3ccccc3C(F)(F)F)nn2c1NC(=O)c1cccc(O)n1 [Compound 590] next?
[A] B (EC1.5 1-25 μM)

[Q] Can you handle Cc1nn2ccc(-c3ccccc3C(F)(F)F)nc2c1NC(=O)c1ccccn1 [Compound 567] next?
[A] B (EC1.5 1-25 μM)

[Q] Can you handle Cc1c(-c2ccccc2C(F)(F)F)nn2c(NC(=O)c3cccc(N4CCCC4)n3)cnc2c1C [Compound 421] next?
[A] A (EC1.5<1 μM)

[Q] Can you handle O=C(Nc1ncn2ccc(-c3ccccc3C(F)(F)F)nc12)c1ccccn1 [Compound 455] next?
[A] B (EC1.5 1-25 μM)

[Q] Can you handle Cc1cc(-c2ccccc2C(F)(F)F)nn2c(C(=O)Nc3ccc(F)cn3)cnc12 [Compound 542] next?
[A] A (EC1.5<1 μM)

[Q] Can you handle Cc1nc2c(C)cc(-c3ccccc3OC(F)(F)F)nn2c1C(=O)Nc1ccc(F)cn1 [Compound 495] next?
[A] A (EC1.5<1 μM)

[Q] Can you handle O=C(Nc1cccc(N2CCOCC2)n1)c1cnc2ccc(N3CC[C@@H](F)C3)nn12 [Compound 488] next?
[A] B (EC1.5 1-25 μM)

[Q] Can you handle Cc1nc2ccc(-c3ccccc3OC(F)(F)F)nn2c1C(=O)Nc1ccc(F)cn1 [Compound 472] next?
[A] B (EC1.5 1-25 μM)

[Q] Can you handle O=C(Nc1cnn2ccc(-c3ccccc3OC(F)(F)F)nc12)c1cnccn1 [Compound 584] next?
[A] B (EC1.5 1-25 μM)
